target: Quinolone resistance protein NorA (Staphylococcus aureus); assay: Inhibition of NorA efflux pump in Staphylococcus aureus K2378 overexpressing NorA assessed as drug level required for two fold potentiation of berberine MIC at 1.56 to 100 ug/mL after 20 hrs by serial dilution method
Calls of active or inactive are those of the source. No cut-off for these calls is given here.
Quantity kind: MIC

COC(=O)c1ccccc1-c1cc2cc([N+](=O)[O-])ccc2[nH]1 ... inactive
COC(=O)c1cccc(-c2cc3cc([N+](=O)[O-])ccc3[nH]2)c1 ... 1 µM
COC(=O)c1ccc(-c2cc3cc([N+](=O)[O-])ccc3[nH]2)cc1 ... inactive

====

tested on: Staphylococcus aureus; assay: Antibacterial activity against Staphylococcus aureus K2378 overexpressing NorA after 18 to 20 hrs by serial dilution method; format: functional
Let's look at some molecules and their measured MIC.
Form entry: value (µM) — number only.

Short answer for `COS(=O)(=O)c1ccc2[nH]c(-c3ccccc3)cc2c1` : MIC was 174

Short answer for COc1ccc2cc3[n+](cc2c1OC)CCc1cc2c(cc1-3)OCO2 [BERBERINE CHLORIDE] : MIC was 2150

Short answer for `CCCOS(=O)(=O)c1ccc2[nH]c(-c3ccccc3)cc2c1` : MIC was 79.3

Short answer for `OCc1ccc2[nH]c(-c3ccccc3)cc2c1` : MIC was 28
